assay protocol: Photophysical properties (UV–Vis absorption and fluorescence spectra)
Type: physicochemical
study conditions: MeOH, 2 µM

# molecule, unit annotation, λabs absorption maximum wavelength
records = [
    ("Cc1ccc(C(=O)/C=C/c2ccc(N(C)C)cc2)cc1 [3e]", "nm", 417),
    ("COc1ccc(C(=O)/C=C/c2ccc(N(C)C)cc2)cc1 [3a]", "nm", 417),
    ("CN(C)c1ccc(/C=C/C(=O)c2ccc(N)cc2)cc1 [3f]", "nm", 414),
    ("CN(C)c1ccc(/C=C/C(=O)c2cccs2)cc1 [3b]", "nm", 428),
    ("CN(C)c1ccc(/C=C/C(=O)c2ccc(N(C)C)cc2)cc1 [3d]", "nm", 423),
    ("CN(C)c1ccc(/C=C/C(=O)c2ccc(O)cc2)cc1 [3c]", "nm", 414),
]

Provenance of the data: paper PMC8156934
